# reported EC50; entries follow
- SYSTEM: human muscarinic M4 receptor (Homo sapiens, UniProt P08173)
- Construct: expressed in transfected cells
- Sequence (P08173 whole entry): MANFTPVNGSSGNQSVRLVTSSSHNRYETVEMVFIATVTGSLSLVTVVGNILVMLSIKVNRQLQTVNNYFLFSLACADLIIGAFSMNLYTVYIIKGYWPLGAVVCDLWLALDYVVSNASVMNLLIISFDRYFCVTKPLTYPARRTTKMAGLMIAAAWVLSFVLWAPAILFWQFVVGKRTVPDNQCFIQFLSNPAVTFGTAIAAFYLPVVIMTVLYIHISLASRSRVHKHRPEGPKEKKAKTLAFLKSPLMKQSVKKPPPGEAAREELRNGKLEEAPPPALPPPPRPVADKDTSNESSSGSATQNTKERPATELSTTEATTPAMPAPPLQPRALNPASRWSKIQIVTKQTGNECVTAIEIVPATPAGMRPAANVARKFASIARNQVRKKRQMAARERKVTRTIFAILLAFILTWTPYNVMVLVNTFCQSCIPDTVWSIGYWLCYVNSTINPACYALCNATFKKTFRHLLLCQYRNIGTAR
- METHOD DESCRIPTION: Alphascreen Surefire phospho-ERK1/2 functional assay, M4
- Type: cell-based
- RUN PARAMETERS: CHO cells stably expressing human M4; phospho-ERK1/2; * = variable results; read-out: pEC50 M4 (converted)
Numbers only; they are read as nM.

State, in one line, measured EC50 of CCOC(=O)N1CCC2(CC(N3CCC(N4C(=O)CC[C@H]4C)CC3)C2)C1 (single isomer, unassigned) [2-113 Isomer 2]
15.8

Look up and report measured EC50 for this entry: [2H]C([2H])(C)OC(=O)N1CCC2(CC(N3CCC(c4ccnn4C)CC3)C2)C1 (single isomer, unassigned) [1-71 Isomer 2]
100

// Input: CCOC(=O)N1CCC2(CC(N3CCC(c4nccn4CC#N)CC3)C2)C1 (single isomer, unassigned) [1-52 Isomer 2] . Output its EC50 only.
15.8

Others:
Provide measured EC50 value, entry: CCOC(=O)N1CCC2(CC(N3CCC(N4CCOCC4)CC3)C2)C1 (single isomer, unassigned) [4-11 Isomer 2]
200

Give recorded EC50. CCOC(=O)N1CCC2(CC(N3CCC(c4cnc(OC)c(C)c4)CC3)C2)C1 (single isomer, unassigned) [3-7 Isomer 2]
100

====

- SYSTEM: human muscarinic M3 receptor (Homo sapiens, UniProt P20309)
- Sequence (P20309 whole entry): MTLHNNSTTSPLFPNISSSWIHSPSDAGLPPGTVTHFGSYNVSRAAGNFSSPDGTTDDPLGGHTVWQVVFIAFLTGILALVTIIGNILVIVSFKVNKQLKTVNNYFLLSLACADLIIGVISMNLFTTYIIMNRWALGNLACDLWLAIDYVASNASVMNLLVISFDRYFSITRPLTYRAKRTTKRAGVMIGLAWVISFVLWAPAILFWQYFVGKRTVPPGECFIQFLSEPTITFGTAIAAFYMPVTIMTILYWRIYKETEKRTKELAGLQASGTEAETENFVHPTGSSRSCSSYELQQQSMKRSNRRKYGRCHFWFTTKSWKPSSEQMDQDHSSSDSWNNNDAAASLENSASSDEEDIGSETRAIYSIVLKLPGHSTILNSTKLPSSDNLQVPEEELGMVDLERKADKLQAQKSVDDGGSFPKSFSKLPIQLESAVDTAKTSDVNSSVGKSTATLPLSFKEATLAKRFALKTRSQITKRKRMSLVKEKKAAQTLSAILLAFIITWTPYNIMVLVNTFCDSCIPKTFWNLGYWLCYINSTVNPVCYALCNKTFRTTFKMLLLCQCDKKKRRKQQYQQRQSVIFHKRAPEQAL
- METHOD DESCRIPTION: Alphascreen Surefire phospho-ERK1/2 functional assay, M3
- RUN PARAMETERS: CHO, read-out: % Emax cf. ACh, M3, CHO cells stably expressing human M3; relative to ACh
EXPERIMENTAL READOUT: Emax (%)
Provide only the numeric value, understood in %.

Answer with reported Emax of CCOC(=O)N1CCC2(CC(N3CCC(C4CCCN4C(=O)OCC)CC3)C2)C1 (single isomer, unassigned) [2-14 Isomer 2]
7

Give me measured Emax, please, for this compound: CCOC(=O)N1CCC2(CC(N3CCC(c4nccn4C(=O)OCC)CC3)C2)C1 (single isomer, unassigned) [1-8 Isomer 2]
0

Please give measured Emax of the following entry: CCOC(=O)N1CCC2(CC(N3CCC([C@@H]4CCCN4C(=O)OCCOC)CC3)C2)C1 (single isomer, unassigned) [2-50 Isomer 2]
2

Give reported Emax value for CCOC(=O)N1CCC2(CC(N3CCC(c4ccn[nH]4)CC3)C2)C1 (single isomer, unassigned) [1-18 Isomer 2]
56

Retrieve Emax measured for CCOC(=O)N1CCC2(CC(N3CCC([C@@H]4CCCN4C(=O)OC)CC3)C2)C1 (single isomer, unassigned) [2-12 Isomer 2] and print it.
6

Give the reported value of Emax for this record: CCOC(=O)N1CCC2(CC(N3CCC(n4cc(C)cn4)CC3)C2)C1 (single isomer, unassigned) [1-34 Isomer 1]
0

Identify the reported Emax for the following entry. CCOC(=O)N1CCC2(CC(N3CCC(N4CCCC4=O)CC3)C2)C1 (single isomer, unassigned) [2-111 Isomer 2]
0

Quick one: give measured Emax for CCOC(=O)N1CCC2(CC(N3CCC(C4CCCN(C(C)C)C4=O)CC3)C2)C1 (single isomer, unassigned) [4-6 Isomer 2]
9

Determine its reported Emax: CCOC(=O)N1CCC2(CC(N3CCC([C@@H]4CCCN4C(=O)N4CC(F)(F)C4)CC3)C2)C1 (single isomer, unassigned) [2-39 Isomer 2]
1

Determine from records and report Emax for CCOC(=O)N1CCC2(CC(N3CCC(c4nc(C(F)(F)F)cn4C)CC3)C2)C1 (single isomer, unassigned) [1-15 Isomer 2]
6

Note down Emax recorded for COC(=O)N1CCC2(CC(N3CCC(c4nc(Cl)c(Cl)n4C)CC3)C2)C1 (single isomer, unassigned) [1-16 Isomer 2]
1

Give the value of Emax reported for the following: CCOC(=O)N1CCC2(CC(N3CCC([C@@H]4CCCN4C(=O)COC)CC3)C2)C1 (single isomer, unassigned) [2-46 Isomer 2]
8

Please give measured Emax of the following entry: CCOC(=O)N1CCC2(CC(N3CCC(N4CC(F)(F)C[C@@H]4C(=O)N(C)C)CC3)C2)C1 (single isomer, unassigned) [2-89 Isomer 2]
8
